src = patent EP4624465A1

- TEST SYSTEM: DDR1 kinase (Homo sapiens)
- Sequence (Q08345 19-876 isoform Q08345-2 limits assumed): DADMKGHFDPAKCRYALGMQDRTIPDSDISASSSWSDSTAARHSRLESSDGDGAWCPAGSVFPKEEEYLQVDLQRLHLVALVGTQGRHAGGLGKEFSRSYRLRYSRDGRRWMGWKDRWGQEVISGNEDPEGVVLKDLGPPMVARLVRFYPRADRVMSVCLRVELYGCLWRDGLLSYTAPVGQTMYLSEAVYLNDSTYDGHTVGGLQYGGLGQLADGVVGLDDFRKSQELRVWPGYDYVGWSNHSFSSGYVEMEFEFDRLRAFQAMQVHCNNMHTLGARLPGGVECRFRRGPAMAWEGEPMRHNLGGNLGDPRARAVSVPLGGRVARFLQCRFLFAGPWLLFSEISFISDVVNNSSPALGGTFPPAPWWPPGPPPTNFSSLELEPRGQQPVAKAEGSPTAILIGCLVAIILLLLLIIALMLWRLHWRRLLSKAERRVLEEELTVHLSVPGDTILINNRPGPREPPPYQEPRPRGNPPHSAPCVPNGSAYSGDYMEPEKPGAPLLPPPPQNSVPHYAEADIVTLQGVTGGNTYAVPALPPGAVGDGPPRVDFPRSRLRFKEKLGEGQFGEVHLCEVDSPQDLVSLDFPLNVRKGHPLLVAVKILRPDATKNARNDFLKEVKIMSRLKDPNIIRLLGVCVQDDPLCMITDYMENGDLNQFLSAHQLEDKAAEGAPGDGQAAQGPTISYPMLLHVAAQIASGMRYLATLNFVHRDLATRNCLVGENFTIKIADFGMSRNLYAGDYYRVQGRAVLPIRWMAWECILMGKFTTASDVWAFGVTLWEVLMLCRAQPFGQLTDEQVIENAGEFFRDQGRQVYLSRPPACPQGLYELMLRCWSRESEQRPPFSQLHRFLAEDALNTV
- PROTOCOL: Evaluation of DDR1 kinase inhibition (LANCE Ultra TR-FRET kinase assay)
- Assay type: biochemical
- Design: purchased Carna Biosciences 08-113
- PARTICULARS: DDR1 protein 0.5 nM, LANCE Ultra ULight-poly GAT substrate, 2 hours at room temperature, duplicate; read-out: DDR-1 IC50
pIC50: −log10 of the molar value. Counter-ions that a name gives are not always drawn.
PARAMETER: pIC50

| MOLECULE | OBSERVED VALUE |
| --- | --- |
| Nc1cc(C(=O)N2CC(c3nn(Cc4noc(-c5ccc(F)cc5)n4)c4cccc(F)c34)C2)ccn1 [Compound E-116] | 8.36 |

I. O=C(Cn1nc(C2CN(C(=O)c3ccnc(NC4CCC4)c3)C2)c2c(F)cccc21)NCC(F)(F)F [Compound E-68, hydrochloride]
II. O=C(Cn1nc(C2CN(C(=O)c3cc(NC4CC4)ncn3)C2)c2c(F)cc(F)cc21)NCC(F)(F)F [Compound E-31]
Lab note: record which item had the higher pIC50, I or II . Write down the label of the entry you select.
I
(I: 8.42, II: 7.68)
